Test system: K-562 leukemia
assay-notes: NCI tumour cell line growth inhibition, 48 h
reported-endpoint: TGI

TGI for C=C(CC(NC(=O)c1ccc(C(CC)Cc2cnc3nc(N)nc(N)c3n2)cc1)C(=O)O)C(=O)O (stereo unspecified) is > 100 µM

TGI for "COc1ccc(-n2c(N)c(C#N)[nH]c2=O)cc1" is > 10 µM

----------
Tested on: NCI-H522 lung
assay-notes: NCI tumour cell line growth inhibition, 48 h
reported-endpoint: TGI

The examples below pair each entry with its known result.
| structure-smiles-string | target-system | TGI |
| --- | --- | --- |
| O=C(O)Cc1ccc(Nc2nc3cc(C(F)(F)F)ccc3nc2C(=O)O)cc1 | NCI-H522 lung | > 100 µM |
| Cn1c(-c2c(N)n(Nc3cccc(Cl)c3)c3nc(C#N)c(C#N)nc23)nc2ccccc21 | NCI-H522 lung | 8.19 µM |

API: the following record is the query input.
TGI for "FC(F)(c1ccc2ncccc2c1)c1nnc2ccc(-c3ccncc3)nn12" is > 100 µM
